test system: SK-MEL-2 melanoma; test: NCI-60 one-dose screen, 48 h (100 = growth as untreated, 0 = no growth, -100 = all killed); conditions: 10 µM unless noted
Compounds without any hit were thinned out: in the full panel of roughly 83,000, 20% have a hit.
Binary label based on growth with cut-off 80%: below gives y, not below gives n.

>>> category("Cc1ccc(-c2c3c(N)c4c(nc3nc3c2c(C)nn3-c2ccccc2)CCCC4)cc1")
"n"
>>> category("O=S(=O)(OCCO)c1ccccc1")
"n"
>>> category("CCCOC(=O)c1ccc2c(c1)[N+](=O)C(C(=O)c1ccccc1)=C(C(F)(F)F)[N+]2=O")
"y"
>>> category("COC(=O)c1c2c(c(C)[n+]([O-])c1C)C(=O)C=C(NCc1cccc(OC)c1)C2=O")
"y"
>>> category("COc1ccc(NC(=O)COc2ccccc2)c(C(N)=O)c1")
"y"
>>> category("O=C1c2cc(S(=O)(=O)O)ccc2C(=O)c2c1cccc2[N+](=O)[O-]")
"n"
>>> category("COc1ccc(C2CC(c3cc(OC)c(OC)c(OC)c3)=NN2c2ccc(S(N)(=O)=O)cc2)cc1 (stereo unspecified)")
"n"
>>> category("O=c1c2cc(F)ccc2oc2c(NCCNCCO)nc3ccccc3c12")
"n"
>>> category("FC(F)(F)c1cc(CNc2nc(Cl)ncc2Br)cc(C(F)(F)F)c1")
"n"
>>> category("COc1cc(C2CC(=O)Nc3c2ccc2ccccc32)cc(Br)c1OC (stereo unspecified)")
"y"
>>> category("COc1ccc(/C=C(\\C#N)c2cc3ccccc3n2C)cc1")
"y"
>>> category("Cc1ccc(S(=O)(=O)N(c2ccc(Cl)cc2)c2ccc(Br)cc2C(=O)O)cc1")
"n"
>>> category("COc1ccc(-n2ncc3c4nc(OC)c(S(=O)(=O)c5ccccc5)cc4ccc32)cc1")
"y"
>>> category("Cn1c2c(cc(S(=O)(=O)c3ccccc3)c1=O)CCc1c-2cnn1-c1cccc(Cl)c1")
"n"
>>> category("COc1ccc(OC)c(/C=C2\\Oc3cc(O)ccc3C2=O)c1")
"n"
>>> category("Cn1c2ccc(Cl)cc2c2nn(C(=O)c3ccccc3)c(=O)nc21")
"n"
>>> category("Cc1nc(-c2ccccc2)cc2c(O)c(C(=O)N/N=C/Cc3ccccc3)[nH]c(=O)c12")
"n"
>>> category("Cc1cc(O)cc2c1[C@H]1CC[C@]3(C)[C@@H](O)CC[C@H]3[C@@H]1C=C2")
"n"
>>> category("COc1ccc(-c2nc3sc(C)cn3c2/C=C/C(=O)c2cc(OC)c(OC)c(OC)c2)cc1")
"y"
>>> category("COc1ccc(/C=N/OCC(O)CN2CCC(O)CC2)cc1OC1CCCC1 (stereo unspecified)")
"n"
